Recorded values, source paper PMC3961306.

measured-target: panel of more than 300 wild-type and mutant kinases (313 kinase panel) (Homo sapiens, UniProt P53355)
measurement-protocol: Kinase profiling in a biochemical assay panel (mobility shift assays and ELISA), %-inhibition at 1 μM; selectivity entropy
assay-setup: kinase DAPK1; compound at 1 μM

molecule: C[C@@H](Oc1cc(-c2cnn(C3CCNCC3)c2)cnc1N)c1c(Cl)ccc(F)c1Cl [crizotinib]
%-inhibition of DAPK1, %: -4
//
molecule: N#CC[C@H](C1CCCC1)n1cc(-c2ncnc3[nH]ccc23)cn1 [ruxolitinib]
%-inhibition of DAPK1, %: 71
//
molecule: CCCS(=O)(=O)Nc1ccc(F)c(C(=O)c2c[nH]c3ncc(-c4ccc(Cl)cc4)cc23)c1F [vemurafenib]
%-inhibition of DAPK1, %: -0.115
//
molecule: O=S(=O)(c1cccc2cnccc12)N1CCCNCC1 [fasudil]
%-inhibition of DAPK1, %: 10
//
molecule: COc1cc2c(Nc3ccc(Br)cc3F)ncnc2cc1OCC1CCN(C)CC1 [vandetanib]
%-inhibition of DAPK1, %: -9
